All values here come from patent US7897573B2.

assay_info: Rat serum stability study (DiscoveRx cAMP read-out on CHO-VPAC2 cells)
condition_notes: 72 h in rat serum at 37° C.; EC50, 4° C./EC50, 37° C.; values >100% may represent release of intact peptide from the PEG conjugate
quantity: 72 h stab (%)

Below are worked cases with known answers.
C6-HSDAVFTEQY(OMe)TOrnLRAibQLAAbuAibOrnYAibQSIOrnOrnGGPSSGAPPPC(PEG20K)C(PEG20K)-NH2 (HSDAVFTEQYTXLRXQLAXXXYXQSIXXGGPSSGAPPPCC; C6 acyl, two PEG20K, C-terminal amide; Synthetic sequence PEGylated VPAC2 receptor agonist) [Agonist P521] :: 294%
C6-HSDAVFTEQY(OMe)TOrnLRK(WPEG40K)QVAAAibOrnYLQSIOrnOrnGGPSSGAPPPS-NH2 (HSDAVFTEQYTXLRXQVAAXXYLQSIXXGGPSSGAPPPS; C6 acyl, PEG40K on Lys, C-terminal amide; Synthetic sequence PEGylated VPAC2 receptor agonist) [Agonist P529] :: 119%
C6-HSDAVFTEQY(OMe)TOrnLRAibQVAAAibOrnYLQSIOrnC(PEG20K)OrnGGPSSGAPPPC(PEG20K)-NH2 (HSDAVFTEQYTXLRXQVAAXXYLQSIXCXGGPSSGAPPPC; C6 acyl, two PEG20K, C-terminal amide; Synthetic sequence PEGylated VPAC2 receptor agonist) [Agonist P505] :: 161%
C6-HSDAVFTEQY(OMe)TOrnLRAibQLAAbuAibOrnYAibQAibIOrnOrnGGPSSGAPPPC(PEG20K)C(PEG20K)-NH2 (HSDAVFTEQYTXLRXQLAXXXYXQXIXXGGPSSGAPPPCC; C6 acyl, two PEG20K, C-terminal amide; Synthetic sequence PEGylated VPAC2 receptor agonist) [Agonist P525] :: 353%

Q: Recall and state the measured 72 h stab (%) for C6-HSDAVFTEQY(OMe)TOrnLRAibQLAAbuAibOrnYLQSIOrnOrnGGPSSGAPPPC(PEG20K)C(PEG20K)-NH2 (HSDAVFTEQYTXLRXQLAXXXYLQSIXXGGPSSGAPPPCC; C6 acyl, two PEG20K, C-terminal amide; Synthetic sequence PEGylated VPAC2 receptor agonist) [Agonist P523] .
A: 281%

* * *

Entries and their Tmax
assay_info: Pharmacokinetic profiles of PEGylated peptides in Fisher 344 rats
Format: in vivo, rat
condition_notes: 100 μg agonist/kg, plasma RIA, mean N = 3
Description: Pharmacokinetic profiles of PEGylated peptides. Healthy Fisher 344 rats (3 animals per group) were injected with 100 μg agonist/kg (agonist amount based on peptide content and dissolved in PBS buffer). Blood samples were drawn 3, 12, 24, 48, 72, 96 and 168 hour post dosing and the peptide content in plasma was analysed by a radio-immunoassay (RIA) directed against the N-terminus of the peptide. […]
The answer is to be given in h; state only the numeric part.

Below are worked cases with known answers.
C6-HSDAVFTEQY(OMe)TOrnLRAibQLAAbuAibOrnYAibQSIOrnOrnGGPSSGAPPPC(PEG20K)C(PEG20K)-NH2 (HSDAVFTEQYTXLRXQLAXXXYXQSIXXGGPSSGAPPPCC; C6 acyl, two PEG20K, C-terminal amide; Synthetic sequence PEGylated VPAC2 receptor agonist) [Agonist P521] :: 12
C6-HSDAVFTEQY(OMe)TOrnLRAibQLAAbuAibOrnY(OMe)LQAibIOrnOrnGGPSSGAPPPC(PEG20K)C(PEG20K)-NH2 (HSDAVFTEQYTXLRXQLAXXXYLQXIXXGGPSSGAPPPCC; C6 acyl, non-natural residues, two PEG20K, C-terminal amide; Synthetic sequence PEGylated VPAC2 receptor agonist) [Agonist P574] :: 20
C6-HSDAVFTEQY(OMe)TOrnLRAibQVAAAibOrnYLQSIOrnK(CO(CH2)2SPEG20K)OrnGGPSSGAPPPC(PEG20K)-NH2 (HSDAVFTEQYTXLRXQVAAXXYLQSIXXXGGPSSGAPPPC; C6 acyl, two PEG20K, C-terminal amide; Synthetic sequence PEGylated VPAC2 receptor agonist) [Agonist P499] :: 24
C6-HSDAVFTEQY(OMe)TOrnLRAibQLAAbuAibOrnYLQSIOrnC(PEG20K)OrnGGPSSGAPPPC(PEG20K)-NH2 (HSDAVFTEQYTXLRXQLAXXXYLQSIXCXGGPSSGAPPPC; C6 acyl, two PEG20K, C-terminal amide; Synthetic sequence PEGylated VPAC2 receptor agonist) [Agonist P555] :: 16
C6-HSDAVFTEQY(OMe)TOrnLRAibQVAAbuAibOrnYLQAibIOrnOrnGGPSSGAPPPC(PEG40K)-NH2 (HSDAVFTEQYTXLRXQVAXXXYLQXIXXGGPSSGAPPPC; C6 acyl, PEG40K on Cys, C-terminal amide; Synthetic sequence PEGylated VPAC2 receptor agonist) [Agonist P511] :: 16

Turning to the following substance.
Q: Recall and state the measured Tmax for C6-HSDAVFTEQY(OMe)TOrnLRAibQVAAAibOrnYLQSIOrnC(PEG20K)OrnGGPSSGAPPPC(PEG20K)-NH2 (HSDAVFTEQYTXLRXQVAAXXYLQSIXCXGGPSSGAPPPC; C6 acyl, two PEG20K, C-terminal amide; Synthetic sequence PEGylated VPAC2 receptor agonist) [Agonist P505] .
A: 12

* * *

Entries and their 24 h stab (%)
assay_info: Rat serum stability study (DiscoveRx cAMP read-out on CHO-VPAC2 cells)
condition_notes: 24 h in rat serum at 37° C.; EC50, 4° C./EC50, 37° C.; values >100% may represent release of intact peptide from the PEG conjugate
The answer is to be given in %; state only the numeric part.

Below are worked cases with known answers.
C6-HSDAVFTEQY(OMe)TOrnLRAibQLAAbuAibOrnYAibQAibIOrnOrnGGPSSGAPPPC(PEG20K)C(PEG20K)-NH2 (HSDAVFTEQYTXLRXQLAXXXYXQXIXXGGPSSGAPPPCC; C6 acyl, two PEG20K, C-terminal amide; Synthetic sequence PEGylated VPAC2 receptor agonist) [Agonist P525] :: 298
C6-HSDAVFTEQY(OMe)TOrnLRK(CO(CH2)2SPEG40K)QVAAAibOrnYLQSIOrnOrnGGPSSGAPPPS-NH2 (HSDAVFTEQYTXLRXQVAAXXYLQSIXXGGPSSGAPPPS; N-terminal C6 acyl, PEG40K on Lys, C-terminal amide; Synthetic sequence PEGylated VPAC2 receptor agonist) [Agonist P485] :: 65

Turning to the following substance.
Q: Recall and state the measured 24 h stab (%) for C6-HSDAVFTEQY(OMe)TOrnLRAibQVAAK(CO(CH2)2SPEG40K)OrnYLQSIOrnOrnGGPSSGAPPPS-NH2 (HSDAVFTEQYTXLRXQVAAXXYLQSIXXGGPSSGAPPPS; N-terminal C6 acyl, PEG40K on Lys, C-terminal amide; Synthetic sequence PEGylated VPAC2 receptor agonist) [Agonist P475] .
A: 61

* * *

Entries and their Tmax
assay_info: Pharmacokinetic profiles of PEGylated peptides in Fisher 344 rats
Format: in vivo, rat
condition_notes: 100 μg agonist/kg, plasma RIA, mean N = 3
The answer is to be given in h; state only the numeric part.

C6-HSDAVFTEQY(OMe)TOrnLRAibQLAAbuAibOrnYLQSIOrnC(PEG40K)OrnGGPSSGAPPPS-NH2 (HSDAVFTEQYTXLRXQLAXXXYLQSIXCXGGPSSGAPPPS; C6 acyl, PEG40K on Cys, C-terminal amide; Synthetic sequence PEGylated VPAC2 receptor agonist) [Agonist P539] :: 24
C6-HSDAVFTEQY(OMe)TOrnLRAibQVAAAibOrnYLQSIOrnOrnC(PEG20K)GGPSSGAPPPC(PEG20K)NH2 (HSDAVFTEQYTXLRXQVAAXXYLQSIXXCGGPSSGAPPPC; C6 acyl, two PEG20K, C-terminal amide; Synthetic sequence PEGylated VPAC2 receptor agonist) [Agonist P562] :: 24

Turning to the following substance.
Q: Recall and state the measured Tmax for C6-HSDAVFTEQY(OMe)TOrnLRAibQC(PEG40K)AAbuAibOrnYLQAibIOrnOrnGGPSSGAPPPS-NH2 (HSDAVFTEQYTXLRXQCAXXXYLQXIXXGGPSSGAPPPS; C6 acyl, PEG40K on Cys, C-terminal amide; Synthetic sequence PEGylated VPAC2 receptor agonist) [Agonist P545] .
A: 72

* * *

assayed_system: Rat VPAC2 Receptor (Rattus norvegicus, UniProt P35000)
Construct: expressed in transfected cells; host or cells: CHO-PO (transient, Lipofectamine)
Sequence (P35000 23-437): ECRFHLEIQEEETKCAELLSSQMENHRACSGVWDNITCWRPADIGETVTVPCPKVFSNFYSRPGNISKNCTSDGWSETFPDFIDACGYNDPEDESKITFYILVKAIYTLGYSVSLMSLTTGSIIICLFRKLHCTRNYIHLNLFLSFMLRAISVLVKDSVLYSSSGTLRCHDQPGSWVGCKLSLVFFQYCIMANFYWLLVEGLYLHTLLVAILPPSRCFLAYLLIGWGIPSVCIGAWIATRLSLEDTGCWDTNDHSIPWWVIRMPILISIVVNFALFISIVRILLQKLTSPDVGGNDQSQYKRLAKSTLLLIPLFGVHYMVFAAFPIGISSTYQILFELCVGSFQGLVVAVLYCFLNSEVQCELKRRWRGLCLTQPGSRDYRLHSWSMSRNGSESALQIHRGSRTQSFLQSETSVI
assay_info: DiscoveRx cAMP potency, CHO-PO cells transiently transfected with rat VPAC2 receptor
Assay type: cell-based
condition_notes: cAMP generation
Description: DiscoveRx: CHO-PO cells are transiently transfected with rat VPAC1 or VPAC2 receptor DNA using commercially available transfection reagents (Lipofectamine from Invitrogen). […] On the day of the experiment, the medium is removed. […] EC50 values for cAMP generation are calculated from the raw signal or are based on absolute cAMP levels as determined by a standard curve performed on each plate. […]
quantity: EC50 (nM)
The answer is to be given in nM; state only the numeric part.

C6-HSDAVFTEQY(OMe)TOrnLRAibQLAAbuAibOrnY(OMe)LQSIOrnC(PEG40K)OrnGGPSSGAPPPS-NH2 (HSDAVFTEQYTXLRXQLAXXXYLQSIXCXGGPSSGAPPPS; C6 acyl, non-natural residues, PEG40K, C-terminal amide; Synthetic sequence PEGylated VPAC2 receptor agonist) [Agonist P584] :: 67.2

Q: Recall and state the measured EC50 for C6-HSDAVFTEQY(OMe)TOrnLRAibQVAAAibK(CO(CH2)2SPEG40K)YLQSIOrnOrnGGPSSGAPPPS-NH2 (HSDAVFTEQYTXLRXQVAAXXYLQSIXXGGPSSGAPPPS; C6 acyl; PEG40K; non-natural residues; amide; Synthetic sequence PEGylated VPAC2 receptor peptide agonist) [Agonist P472] .
A: 285

Q: Recall and state the measured EC50 for C6-HSDAVFTEQY(OMe)TOrnLRAibQLAAbuAibOrnY(OMe)LQSIOrnC(PEG20K)OrnGGPSSGAPPPC(PEG20K)-NH2 (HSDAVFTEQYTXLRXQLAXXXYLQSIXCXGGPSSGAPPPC; C6 acyl, non-natural residues, two PEG20K, C-terminal amide; Synthetic sequence PEGylated VPAC2 receptor agonist) [Agonist P588] .
A: 311

Q: Recall and state the measured EC50 for C6-HSDAVFTEQY(OMe)TOrnLRAibQC(PEG20K)AAAibOrnYLQSIOrnOrnGGPSSGAPPPC(PEG20K)-NH2 (HSDAVFTEQYTXLRXQCAAXXYLQSIXXGGPSSGAPPPC; C6 acyl, two PEG20K, C-terminal amide; Synthetic sequence PEGylated VPAC2 receptor agonist) [Agonist P568] .
A: 250

Q: Recall and state the measured EC50 for C6-HSDAVFTEQY(OMe)TOrnLRAibQC(PEG40K)AAbuAibOrnY(OMe)LQAibIOrnOrnGGPSSGAPPPS-NH2 (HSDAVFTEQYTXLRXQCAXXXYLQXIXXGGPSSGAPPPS; C6 acyl, non-natural residues, PEG40K, C-terminal amide; Synthetic sequence PEGylated VPAC2 receptor agonist) [Agonist P578] .
A: 306
